molecular target: UniProt:P08684; test: biochemical
Sequence (P08684 whole entry): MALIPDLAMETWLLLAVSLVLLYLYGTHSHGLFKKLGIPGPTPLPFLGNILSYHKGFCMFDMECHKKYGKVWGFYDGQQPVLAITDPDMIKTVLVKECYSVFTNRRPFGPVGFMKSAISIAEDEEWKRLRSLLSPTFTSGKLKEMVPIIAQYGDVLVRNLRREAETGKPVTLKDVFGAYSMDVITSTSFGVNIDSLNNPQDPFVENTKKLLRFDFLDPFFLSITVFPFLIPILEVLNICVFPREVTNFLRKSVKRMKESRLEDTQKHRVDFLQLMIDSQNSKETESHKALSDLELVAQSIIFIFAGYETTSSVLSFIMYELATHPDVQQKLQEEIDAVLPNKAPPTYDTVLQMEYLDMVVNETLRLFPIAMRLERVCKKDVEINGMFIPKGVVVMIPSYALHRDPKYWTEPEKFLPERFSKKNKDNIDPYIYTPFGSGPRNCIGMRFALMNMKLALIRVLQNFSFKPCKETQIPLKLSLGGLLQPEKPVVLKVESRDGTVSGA
endpoint: pIC50
Lab note: report pIC50 as minus log10 of the concentration in molar units, number only.

INSERT INTO results (compound_structure_string, endpoint, endpoint_result) VALUES
  ('Cc1cccc2c1Oc1ccc(Cl)cc1N=C2N1CCNCC1', 'pIC50', 5.74);

# ---- query molecule ----
Which pIC50 reading was recorded for the molecule CN1c2ccc(Cl)cc2N=C(N2CCNCC2)c2ccccc21 ?
6.40

* * *

// values below are reported Emax
target: D2 receptor (Homo sapiens, UniProt P14416); experiment: Receptor profile, D2 agonist activity; details: read-out: D2 intrinsic activity %
Sequence (P14416 whole entry): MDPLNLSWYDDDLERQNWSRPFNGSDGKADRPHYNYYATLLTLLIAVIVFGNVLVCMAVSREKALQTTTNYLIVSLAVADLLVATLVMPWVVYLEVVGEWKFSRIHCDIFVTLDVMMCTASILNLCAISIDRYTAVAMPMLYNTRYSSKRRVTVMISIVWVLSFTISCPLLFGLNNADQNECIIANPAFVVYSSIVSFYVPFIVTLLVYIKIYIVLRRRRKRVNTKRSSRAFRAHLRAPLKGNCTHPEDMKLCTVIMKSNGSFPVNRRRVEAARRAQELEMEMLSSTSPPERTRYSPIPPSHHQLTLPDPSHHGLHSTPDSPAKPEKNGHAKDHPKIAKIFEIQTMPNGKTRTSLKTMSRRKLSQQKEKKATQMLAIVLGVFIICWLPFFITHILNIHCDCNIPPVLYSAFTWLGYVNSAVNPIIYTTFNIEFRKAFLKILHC
Report the value in % with no unit label.

Some solved entries appear below for comparison.
INSERT INTO results (compound_structure_string, endpoint_result) VALUES
  ('Brc1ccc2c(c1)N=C(N1CCNCC1)c1ccccc1O2', 34),
  ('Clc1ccc2c(c1)N=C(N1CCNCC1)c1ccccc1C2', 33),
  ('Fc1ccc2c(c1)N=C(N1CCNCC1)c1ccccc1O2', 73);

Read the next record carefully.
Which Emax is reported for this compound? CN1c2ccc(Cl)cc2N=C(N2CCNCC2)c2ccccc21
29
